target: UniProtKB P23458; test: Jak Biochemical HTRF Assay, JAK1; settings: HTRF biochemical assay, GST-tagged catalytic domain; top concentration tested […]; read-out: JAK1 IC50
Sequence (P23458 875-1153): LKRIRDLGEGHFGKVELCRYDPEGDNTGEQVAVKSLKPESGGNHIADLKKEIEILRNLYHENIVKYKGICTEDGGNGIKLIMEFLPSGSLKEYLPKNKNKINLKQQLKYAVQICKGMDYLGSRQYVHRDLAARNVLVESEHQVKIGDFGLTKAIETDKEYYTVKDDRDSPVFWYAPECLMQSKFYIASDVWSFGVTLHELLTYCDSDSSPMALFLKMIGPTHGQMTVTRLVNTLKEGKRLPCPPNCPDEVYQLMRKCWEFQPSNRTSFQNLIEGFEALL
pIC50: −log10 of the molar value.
endpoint: pIC50

| compound | endpoint | quantitative_readout |
| --- | --- | --- |
| N#CCC1(n2cc(C(N)=O)c(Nc3ccc(F)cc3)n2)CCC(Nc2cccnc2)CC1 (stereo not shown) [Example 40-39] | pIC50 | 7.52 |
| N#CCC1(n2cc(C(N)=O)c(Nc3ccc(S(=O)(=O)C(F)F)cc3)n2)CCC(N2CC(F)C2)CC1 (stereo not shown) [Example 40-105] | pIC50 | 10.10 |
| N#CCC1(n2cc(C(N)=O)c(Nc3ccccc3)n2)CCN(Cc2c(Cl)cccc2Cl)CC1 [Example 21-14] | pIC50 | 7.74 |
| N#CCC1(n2cc(C(N)=O)c(Nc3ccnc(F)c3)n2)CCC(Nc2ccc(Cl)cc2)CC1 (stereo not shown) [Example 40-61] | pIC50 | 10.22 |
| N#CCC1(n2cc(C(N)=O)c(Nc3ccccc3)n2)CCN(C(=O)c2cccnc2)CC1 [Example 34-8] | pIC50 | 7.85 |

1: N#CCC1(n2cc(C(N)=O)c(Nc3ccc(F)cc3)n2)CCN(c2ccc(OC(F)F)cn2)CC1 [Example 3-19]
2: N#CCC1(n2cc(C(N)=O)c(Nc3ccnc(F)c3)n2)CCC(NCc2ccccc2Cl)CC1 (stereo not shown) [Example 41-16]
When the recorded pIC50 values are compared, which is smaller: that of 1 or that of 2 ? Select an item and report its label. 2
